observed_property: melting point (°C)
Output spec: scalar in °C, unitless text.

Sample records with melting point:
Input: Give recorded melting point. Cc1c2n(c3c(-c4ccc(F)cc4)cc(Cl)cc13)CCNC2=O
Output: 227.5

Input: Give recorded melting point. COc1ncc(-c2cc(F)cc3c(C)c4n(c23)CCNC4=O)cn1
Output: 271

Input: Give recorded melting point. COc1ccc(-c2cc(Cl)cc3cc4n(c23)CCNC4=O)cc1
Output: 282.5

Further cases:
Input: Give recorded melting point. Cc1c2n(c3c(-c4ccc(Cl)cc4F)cc(C#N)cc13)CCNC2=O
Output: 270

Input: Give recorded melting point. N#Cc1cc(-c2cccc(Cl)c2)c2c(c1)cc1n2CCCNC1=O
Output: 209

Input: Give recorded melting point. Cc1c2n(c3c(-c4cncnc4)cc(F)cc13)CCNC2=O
Output: 289

Input: Give recorded melting point. Cc1c2n(c3c(-c4ccc(C#N)cc4)cc(Cl)cc13)CCNC2=O
Output: 290

Input: Give recorded melting point. Cc1cc(-c2ccc(F)c(F)c2)c2c(c1)cc1n2CCCNC1=O
Output: 231

Input: Give recorded melting point. Cc1ccc(-c2cc(Cl)cc3cc4n(c23)CCCNC4=O)cc1
Output: 227

* * *

This section presents molecules with their documented EC (150% of control) values.
Tested on: human embryonic stem cell derived neural stem cells (NSCs)
test_protocol: Neural Stem Cell Proliferation Assay (neurogenesis assay, ATP levels by CellTiterGlo)
Assay type: cell-based
test_conditions: 96 h, compound concentration at which 150% activity of control (100%) is reached, NSC proliferation by ATP level after 4 days incubation, dose response 8 μM to 8 nM
Output spec: scalar in µM, unitless text.

Sample records with EC (150% of control):
Input: Give recorded EC (150% of control). N#Cc1cc(-c2ccc(CO)cc2)c2c(c1)cc1n2CCNC1=O
Output: 0.041

Input: Give recorded EC (150% of control). Cc1c2n(c3c(-c4ccncc4)cc(F)cc13)CCNC2=O
Output: 0.039

Input: Give recorded EC (150% of control). Cc1c2n(c3c(-c4ccc(Cl)cc4Cl)cc(F)cc13)CCNC2=O
Output: 0.01

Input: Give recorded EC (150% of control). Cc1cc(-c2cc(F)cc3c(C)c4n(c23)CCNC4=O)ccc1F
Output: 0.078

Input: Give recorded EC (150% of control). Cc1c2n(c3c(-c4cnc(N)nc4)cc(F)cc13)CCNC2=O
Output: 0.19

Input: Give recorded EC (150% of control). O=C1NCCCn2c1cc1c(F)c(F)cc(-c3ccc(F)cc3)c12
Output: 3.9

Input: Give recorded EC (150% of control). Cc1c2n(c3c(-c4ncc(C(F)(F)F)s4)cc(F)cc13)CCNC2=O
Output: 0.33

Input: Give recorded EC (150% of control). Cc1c2n(c3c(-c4cccnc4)cc(C#N)cc13)CCCNC2=O
Output: 1

Input: Give recorded EC (150% of control). Cc1c2n(c3c(-c4cc(F)cc(F)c4)cc(Cl)cc13)CCNC2=O
Output: 0.12

Input: Give recorded EC (150% of control). Cc1c2n(c3c(-c4ccc(C#N)s4)cc(F)cc13)CCNC2=O
Output: 0.11

Further cases:
Input: Give recorded EC (150% of control). Cc1c2n(c3c(-c4ccc(C(C)C)cc4)cc(F)cc13)CCNC2=O
Output: 0.025

Input: Give recorded EC (150% of control). Cc1cc(-c2cc(C#N)cc3cc4n(c23)CCNC4=O)ccc1F
Output: 0.058

Input: Give recorded EC (150% of control). Cc1ccc(-c2cc(C#N)cc3c(C)c4n(c23)CCCNC4=O)cc1F
Output: 0.16

Input: Give recorded EC (150% of control). Cc1ccc(-c2cc(F)cc3cc4n(c23)CCCNC4=O)cc1
Output: 0.036

Input: Give recorded EC (150% of control). N#Cc1cc(-c2ccc(Cl)cc2F)c2c(c1)cc1n2CCCNC1=O
Output: 0.08

Input: Give recorded EC (150% of control). Cc1c2n(c3c(-c4cc(F)cc(F)c4)cc(C#N)cc13)CCCNC2=O
Output: 0.29

Input: Give recorded EC (150% of control). N#Cc1cc(-c2ccc(Cl)c(F)c2)c2c(c1)cc1n2CCCNC1=O
Output: 1.38

Input: Give recorded EC (150% of control). Cc1c2n(c3c(-c4ccc(F)c(F)c4F)cc(F)cc13)CCNC2=O
Output: 0.035

Input: Give recorded EC (150% of control). Cc1c2n(c3c(-c4ccc(F)c(F)c4)cc(Cl)cc13)CCNC2=O
Output: 0.12

Input: Give recorded EC (150% of control). Cc1c2n(c3c(-c4ccnc(Cl)c4)cc(C#N)cc13)CCNC2=O
Output: 0.22

Input: Give recorded EC (150% of control). N#Cc1cc(-c2ccnc(F)c2)c2c(c1)cc1n2CCCNC1=O
Output: 0.5

Input: Give recorded EC (150% of control). Cc1cc(-c2cc(C#N)cc3cc4n(c23)CCCNC4=O)ccc1F
Output: 0.77
